Could you please report measured GI50 for the items listed next?
System: MCF7
experimentalDetails: NCI tumour cell line growth inhibition, 48 h
Active and inactive are the calls of the source. Cut-off read from the data, not from the text of the source: active = GI50 up to about 1.1 µM and inactive = higher.

Cc1ccc2c(c1)nc1n2C(c2c(F)cccc2F)SC1 (stereo not given) :: 41.7 µM (inactive)

Give me GI50 for each of these molecules, listed below.
1. Nc1nc(Cl)c(Cl)c(NCC2(O)CCC2)n1
2. Cc1cc(O)c2c3c(ccc2c1)C(=O)c1c(O)cccc1C3=O
3. CCCCCCCCCCCC(=O)Oc1c(Cl)cc(Cl)c(OC(=O)C(=O)Oc2c(Cl)cc(Cl)c(OC(=O)CCCCCCCCCCC)c2Cl)c1Cl
4. CC1(C)COC(c2cccc(C3=NC(C)(C)CO3)c2)=N1

Resp:
74.1 µM (inactive)
3.3 µM (inactive)
> 100 µM (inactive)
> 100 µM (inactive)

====

Tested on: SK-MEL-28
experimentalDetails: NCI tumour cell line growth inhibition, 48 h
The source made the active and inactive calls. Rule as the data show it: active = GI50 up to about 1.1 µM and inactive = higher.
Pick one: active, inactive

Known results for molecules:
COc1cc(C=O)cc(O)c1O :: inactive
CCN(CC)CCCNc1c2cc(OC)ccc2nc2cccc([N+](=O)[O-])c12 :: active
O=C(Nc1cccc([N+](=O)[O-])c1)C(=O)C(C(=O)c1ccccc1-c1ccccc1)C1OC(=O)c2ccccc21 (stereo unspecified) :: inactive
Clc1ccccc1/C=c1\nc(-c2ccccc2)n2c1nc1ccccc12 :: inactive
COc1ccc2c(C(=O)O)cc3cc(OC)c(OC)cc3c2c1 :: inactive

Then this molecule:
Req: How was `c1ccc(-c2nnc(CCCCCCCCc3nnc(-c4ccccc4)o3)o2)cc1` classified in this test?
Resp: inactive

====

System: SK-MEL-28
experimentalDetails: NCI tumour cell line growth inhibition, 48 h
Active and inactive are the calls of the source. Rule as the data show it: active = GI50 up to about 1.1 µM and inactive = higher.
testReadout: GI50

Completed entries (count: 10):
CC(C)[C@](O)(C(=O)OCC1CC[N+]2([O-])CC[C@@H](O)C12)[C@H](C)O (stereo partly specified) :: > 375 µM (inactive)
Cc1nnc(CC#N)n1NC(=O)CC#N :: > 100 µM (inactive)
CCO[C@H]1C[C@@H](c2ccccc2)[C@]2(C)C[C@H](C(=O)OC)ON2O1 :: > 100 µM (inactive)
NCC(=O)C(O)C(O)C(O)CO (stereo unspecified) :: > 100 µM (inactive)
O=C(O)c1cccc(OCCO)c1 :: > 100 µM (inactive)
CCOC(=O)c1cc2c(OC(C)=O)ccc(OC(C)=O)c2s1 :: 2.15 µM (inactive)
CC1=CC(/C=C(\C)CCCc2ccoc2)C2(OC(=O)C(C)=C2O)[C@H]2C1CC[C@@H]2C (stereo partly specified) :: 27.6 µM (inactive)
Cc1ccc(SSc2ccc(C)cc2C(=O)O)c(C(=O)O)c1 :: > 100 µM (inactive)
O=C1C2SC34c5c2c2ccccc2n5CCC3CCCN14 (stereo unspecified) :: > 100 µM (inactive)
Cc1ccnc(NS(=O)(=O)c2ccc(N=[N+]=[N-])cc2)n1 :: > 100 µM (inactive)

Now for a further compound.
Req: For the compound shown here, `C/C(=N\NC(=[Se])N(C)C)c1ccccn1` , give the reported GI50.
Resp: 1.91 µM (inactive)

====

Tested on: UACC-62
experimentalDetails: NCI tumour cell line growth inhibition, 48 h
The source made the active and inactive calls. No stated cut-off is given here; in the data, active = GI50 up to about 1.1 µM and inactive = higher.
testReadout: GI50

CCN(CC)CCCC(C)Nc1ccnc2cc(Cl)ccc12 (stereo not given) [CHLOROQUINE PHOSPHATE] :: 28.8 µM (inactive)
COc1ccc2nc(-c3ccccc3)c(=O)[nH]c2c1 :: > 100 µM (inactive)
Cc1ccc(S(=O)(=O)NC(CCC(=O)NN)C(=O)NN)cc1 (stereo not given) :: > 100 µM (inactive)
Cc1cccc(Cn2c3c(c4cc(O)ccc42)C(=O)c2ccccc2C3=O)c1 :: 11.1 µM (inactive)
N#CN=C(NCc1ccccc1)NCc1ccccc1 :: > 100 µM (inactive)

Look up GI50 for the entries below, preserving their order.
1. O=C1Cc2c(-c3ccccc3)cc(-c3ccc(Cl)cc3)nc2-c2ccccc2N1
2. CN(C)c1ccc(C2CC(c3ccc4ccccc4c3O)=NN2)cc1 (stereo not given)
3. O=C(COc1ccc(OCC(=O)N2C(=O)CN(c3ccc(Cl)cc3)C2=S)cc1)N1C(=O)CN(c2ccc(Cl)cc2)C1=S
4. Oc1nc2c(c(-c3ccccc3Cl)n1)COC/C2=C\c1ccccc1Cl
5. NC1CC(=O)c2ccccc21 (stereo not given)

Resp:
5.57 µM (inactive)
36.2 µM (inactive)
16.5 µM (inactive)
> 100 µM (inactive)
> 100 µM (inactive)
